# Test system: A2780 ovarian carcinoma cells
# Experimental details: Clonogenic growth assay (colony formation)
# Assay type: cell-based, human
# Reported conditions: Homo sapiens, A2780; A2780s Clonogenic assay, 24 hr. exposure; read-out: IC50, inhibition of colony formation
Property measured: IC50 (nM)

Compound structure string: CC(C)(C)c1cnc(CSc2cnc(NC(=O)C3CCNCC3)s2)o1
Reported value: 166
